The values you see were collected from patent US8575357B2.

Molecular target: reverse transcriptase (Human immunodeficiency virus type 1 group M subtype B, UniProt P04585)
Construct: negative control (mixture without reverse transcriptase); purchased Roche Diagnostics GmbH, Mannheim, Germany
Assay: Biochemical reverse transcriptase assay (Reverse Transcriptase Assay, colorimetric, Roche)
measured attribute: IC50 (nM)
API: value field is a number in nM; no unit string.

Sure, the documented IC50 for N#Cc1cc(F)cc(-c2sc(C(=O)N3CNC(=O)C3)nc2-c2ccc(F)c(Cl)c2)c1 is 13
